- protocol: Inhibition of mouse notch expressed in CHO cells assessed as transactivation of soluble alkaline phosphatase reporter system
- Assay type: cell-based
measured_parameter: EC50 (µM)

// known answers, use as guide
- smiles_code: "CCC(CC)[C@@H](CO)NS(=O)(=O)c1ccc(Cl)cc1"
  EC50 (µM): 4.09
- smiles_code: "CCOC(=O)N1CCC(c2ccccc2)(S(=O)(=O)c2ccc(Cl)cc2)CC1"
  EC50 (µM): 0.746
- smiles_code: "CC[C@H](C)[C@@H](CO)NS(=O)(=O)c1ccc(Cl)cc1"
  EC50 (µM): 20

[a] CC(C)[C@H](O)C(=O)N[C@@H](C)C(=O)N[C@@H]1C(=O)N(C)CCc2ccccc21
[b] CC[C@H](C)[C@@H](CO)NS(=O)(=O)c1ccc(Br)cc1
Exercise: For a and b , which recorded EC50 is lower? Output the label that corresponds to your choice.
Key: a
(a: 0.063 µM, b: 20 µM)

* * *

- protocol: Inhibition of gamma-secretase expressed in CHO cells expressing wild type human recombinant APP assessed as reduction in amyloid beta40 production
measured_parameter: EC50 (µM)

- smiles_code: "CC[C@H](C)[C@@H](CO)NS(=O)(=O)c1cccc(Cl)c1"
  EC50 / µM: 18.3

[A] CC[C@H](C)[C@@H](CO)NS(=O)(=O)c1ccccc1Cl
[B] CC[C@H](C)[C@@H](CO)NS(=O)(=O)c1ccc(OC(F)(F)F)cc1
[C] CC[C@@H](C)[C@@H](CO)NS(=O)(=O)c1ccc(Cl)cc1
[D] CC[C@H](C)[C@@H](CO)NS(=O)(=O)c1ccc(Cl)c(Cl)c1
[E] CC[C@H](C)[C@@H](CO)NS(=O)(=O)c1ccc(C(F)(F)F)cc1
Exercise: Order the records by EC50, with each subsequent value no larger than the one before. Reply with the labels, ordered as the question asks.
Key: A, D, B, E, C
(A: 56.6 µM, D: 37 µM, B: 23.5 µM, E: 13.1 µM, C: 0.758 µM)

* * *

- protocol: Inhibition of gamma-secretase expressed in CHO cells expressing wild type human recombinant APP assessed as reduction in amyloid beta40 production
measured_parameter: EC50 (nM)

- smiles_code: "C[C@H](c1ccc(F)cc1CCCC(=O)O)N(c1cc(F)ccc1F)S(=O)(=O)c1ccc(Cl)cc1"
  unit_annotation: "nM"
  observed_value: 7
- smiles_code: "CC[C@H](C)[C@@H](CO)NS(=O)(=O)c1ccc([N+](=O)[O-])cc1"
  unit_annotation: "nM"
  observed_value: 20900

[1] C[C@H](NC(=O)[C@@H](O)c1cc(F)cc(F)c1)C(=O)N[C@@H]1C(=O)N(C)N=Cc2ccccc21
[2] CC(C)[C@H](O)C(=O)N[C@@H](C)C(=O)N[C@@H]1C(=O)N(C)CCc2ccccc21
Exercise: For 1 and 2 , which recorded EC50 is lower? Output the label that corresponds to your choice.
Key: 1

* * *

- protocol: Inhibition of gamma-secretase expressed in CHO cells expressing wild type human recombinant APP assessed as reduction in amyloid beta40 production
measured_parameter: EC50 (µM)

// known answers, use as guide
- molecule: "CCOC(=O)N1CCC(c2ccccc2)(S(=O)(=O)c2ccc(Cl)cc2)CC1"
  measured_parameter: "EC50"
  unit_annotation: "µM"
  observed_value: 12.2
- molecule: "CC[C@H](C)[C@@H](CO)NS(=O)(=O)c1cc(Cl)ccc1Cl"
  measured_parameter: "EC50"
  unit_annotation: "µM"
  observed_value: 54.8
- molecule: "CC[C@H](C)[C@@H](CO)NS(=O)(=O)c1ccccc1"
  measured_parameter: "EC50"
  unit_annotation: "µM"
  observed_value: 4.15
- molecule: "CCC(CC)[C@@H](CO)NS(=O)(=O)c1ccc(Cl)cc1"
  measured_parameter: "EC50"
  unit_annotation: "µM"
  observed_value: 0.294
- molecule: "CCCNC(=O)OC[C@@H](C)N(c1cc(Cl)ccc1CO)S(=O)(=O)c1ccc(Cl)cc1"
  measured_parameter: "EC50"
  unit_annotation: "µM"
  observed_value: 0.085
- molecule: "CC[C@H](C)[C@@H](CO)NS(=O)(=O)c1ccc(Cl)cc1"
  measured_parameter: "EC50"
  unit_annotation: "µM"
  observed_value: 5.45
- molecule: "CC[C@H](C)[C@H](NS(=O)(=O)c1ccc(Cl)cc1)C(C)O (stereo partly drawn)"
  measured_parameter: "EC50"
  unit_annotation: "µM"
  observed_value: 49.3

[A] CC[C@H](C)[C@@H](CO)NS(=O)(=O)c1ccc(C(C)=O)cc1
[B] O=S(=O)(N[C@H](CO)c1ccccc1)c1ccc(Cl)cc1
[C] CC(C)(C)[C@@H](CO)NS(=O)(=O)c1ccc(Cl)cc1
[D] CC[C@H](C)[C@@H](CO)NC(=O)Nc1ccc(Cl)cc1
Exercise: Order the records by EC50, with each subsequent value no larger than the one before. Reply with the labels, ordered as the question asks.
Key: B, D, C, A
